Known pIC50 of a selection of compounds
Target: UniProt Q9BY41
Sequence (Q9BY41 whole entry): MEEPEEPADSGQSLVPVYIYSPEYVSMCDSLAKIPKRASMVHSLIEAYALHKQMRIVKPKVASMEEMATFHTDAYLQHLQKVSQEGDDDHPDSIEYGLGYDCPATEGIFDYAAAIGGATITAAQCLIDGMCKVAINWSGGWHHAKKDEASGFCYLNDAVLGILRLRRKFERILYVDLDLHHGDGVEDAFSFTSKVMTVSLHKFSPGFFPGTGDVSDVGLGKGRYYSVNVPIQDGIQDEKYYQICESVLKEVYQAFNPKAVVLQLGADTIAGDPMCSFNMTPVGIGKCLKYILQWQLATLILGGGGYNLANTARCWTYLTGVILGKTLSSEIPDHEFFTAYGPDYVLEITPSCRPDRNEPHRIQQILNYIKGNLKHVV
Assay: Inhibition of recombinant HDAC8 (unknown origin) expressed in Escherichia coli BL21(DE3) after 60 mins using trichostatin A by label-free mass spectrometry-based SAMDI assay
pIC50: −log10 of the molar value.

SUBSTANCE SMILES	CMP	pIC50
CC[C@@H]1OC(=O)[C@H](C)[C@@H](O[C@@H]2C[C@](C)(OC)[C@H](O)[C@@H](C)O2)[C@@H](C)[C@@H](O[C@@H]2O[C@H](C)C[C@H](N(C)Cc3ccccc3-c3cn(CCCCCCC(=O)NO)nn3)[C@H]2O)[C@](C)(O)C[C@@H](C)CN(C)[C@H](C)[C@@H](O)[C@]1(C)O	=	5.89
CC[C@H]1OC(=O)[C@H](C)C(=O)[C@H](C)[C@@H](O[C@@H]2O[C@H](C)C[C@H](N(C)Cc3ccc(-c4cn(CC(=O)NO)nn4)cc3)[C@H]2O)[C@@](C)(OC)C[C@@H](C)C2=NCCN3C(=O)O[C@@]1(C)[C@H]3[C@H]2C	=	5.55
CC[C@H]1OC(=O)[C@H](C)[C@@H](O[C@@H]2C[C@](C)(OC)[C@H](O)[C@@H](C)O2)[C@H](C)[C@@H](O[C@@H]2O[C@H](C)C[C@H](N(C)C)[C@H]2O)[C@@](C)(O)C[C@@H](C)CN(Cc2ccc(-c3cn(CC(=O)NO)nn3)cc2)[C@@H](C)[C@@H](O)[C@]1(C)O	<	5.00
CC[C@@H]1OC(=O)[C@H](C)[C@@H](O[C@@H]2C[C@](C)(OC)[C@@](O)(CN(C)Cc3ccc(-c4cn(CCCC(=O)NO)nn4)cc3)[C@@H](C)O2)[C@@H](C)[C@@H](O[C@@H]2O[C@H](C)C[C@H](N(C)C)[C@H]2O)[C@](C)(O)C[C@@H](C)CN(C)[C@H](C)[C@@H](O)[C@]1(C)O	=	5.93
